Data provenance: patent US20050187239A1

- Tested on: Male CD-1 mice
- Run conditions: mouse, in vivo, sc
Property name: interaction with a fixed dose of L-methadone (FIG. 1A)

[[record]]
smiles_string = "CCOC(=O)C1(c2ccccc2)CCN(C)CC1"
system_tested = "Male CD-1 mice"
assay_result = "additive interactions"

[[record]]
smiles_string = "COc1ccc2c3c1O[C@H]1C(=O)CC[C@@]4(O)[C@@H](C2)N(C)CC[C@]314"
system_tested = "Male CD-1 mice"
assay_result = "additive interactions"

[[record]]
smiles_string = "CN1CC[C@]23c4c5ccc(O)c4O[C@H]2C(=O)CC[C@@]3(O)[C@H]1C5"
system_tested = "Male CD-1 mice"
assay_result = "additive interactions"

